TESTED ON: Recombinant human prolyl oligopeptidase (Homo sapiens)
Sequence (P48147 whole entry): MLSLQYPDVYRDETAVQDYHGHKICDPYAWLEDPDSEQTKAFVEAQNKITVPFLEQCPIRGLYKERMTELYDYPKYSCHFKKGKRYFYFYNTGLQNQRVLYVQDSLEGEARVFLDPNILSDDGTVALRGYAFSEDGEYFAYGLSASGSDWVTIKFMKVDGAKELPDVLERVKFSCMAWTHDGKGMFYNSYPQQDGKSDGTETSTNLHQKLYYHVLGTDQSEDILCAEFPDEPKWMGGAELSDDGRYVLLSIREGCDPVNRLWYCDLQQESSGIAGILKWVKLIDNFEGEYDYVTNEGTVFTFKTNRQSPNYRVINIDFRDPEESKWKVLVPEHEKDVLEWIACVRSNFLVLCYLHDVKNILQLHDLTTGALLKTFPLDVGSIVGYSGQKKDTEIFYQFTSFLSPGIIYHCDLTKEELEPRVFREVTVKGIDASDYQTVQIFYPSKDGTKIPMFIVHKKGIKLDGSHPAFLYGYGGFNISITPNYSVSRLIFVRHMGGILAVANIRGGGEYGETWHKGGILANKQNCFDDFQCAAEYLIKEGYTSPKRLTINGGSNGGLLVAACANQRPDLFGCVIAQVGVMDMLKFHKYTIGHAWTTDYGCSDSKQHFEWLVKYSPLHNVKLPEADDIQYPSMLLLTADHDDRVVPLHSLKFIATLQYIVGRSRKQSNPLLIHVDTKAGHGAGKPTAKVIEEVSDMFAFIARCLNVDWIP
ASSAY METHOD TEXT: Determination of IC50- and Ki-values of PEP-inhibitors, chromogenic substrate Cbz-Gly-L-Pro-pNA
CONDITION PARAMETERS: substrate 0.15 mM, HEPES buffer pH 7.6, 30° C.; n.i. means no inhibition
Method: Recombinant human prolyl oligopeptidase was used for measurement. Recombinant expression was performed in E. coli under standard conditions as described elsewhere in the state of the art. For activity measurements the chromogenic substrate Cbz-Gly-L-Pro-pNA was used in HEPES buffer pH 7.6 containing 50 mM HEPES, 200 mM NaCl, 1 mM EDTA, 1 mM DTT, 0.006% Brij35. Measurements were carried out at 30° C. Release of pNA were monitored continuously at 405 nm. […]
pIC50: −log10 of the molar value.
// values below are reported pIC50
MEASURE: pIC50

>  <COMPOUND>
CC(C)(C)OC(=O)N1CCC[C@H]1C(=O)c1nccs1 [Example 25, 2-[Boc-L-Pro]Thiazole]

>  <REPORTED VALUE>
5.14

$$$$
>  <COMPOUND>
O=C(N[C@@H](Cc1ccccc1)C(=O)c1ccccn1)OCc1ccccc1 [Example 7, 2-[Cbz-L-Phe]Pyridine]

>  <REPORTED VALUE>
4.41

$$$$
>  <COMPOUND>
CC(C)(C)OC(=O)N[C@@H](Cc1c[nH]c2ccccc12)C(=O)c1nc2ccccc2s1 [Example 16, 2-[Boc-L-Trp]Benzothiazole]

>  <REPORTED VALUE>
4.40

$$$$
>  <COMPOUND>
CC(C)(C)OC(=O)N[C@@H](Cc1ccc([N+](=O)[O-])cc1)C(=O)c1ccco1 [Example 12, 2-[Boc-L-(p-NO2)Phe]Furan]

>  <REPORTED VALUE>
4.85

$$$$
>  <COMPOUND>
CC(C)(C)OC(=O)N[C@@H](Cc1ccc([N+](=O)[O-])cc1)C(=O)c1nccs1 [Example 11, 2-[Boc-L-(p-NO2)Phe]Thiazole]

>  <REPORTED VALUE>
4.60

$$$$
>  <COMPOUND>
C[C@H](NC(=O)OCc1ccccc1)C(=O)c1nc2ccccc2s1 [Example 6, 2-[Cbz-L-Ala]Benzothiazole]

>  <REPORTED VALUE>
5.35

$$$$
>  <COMPOUND>
CC(C)(C)OC(=O)N[C@@H](Cc1c[nH]c2ccccc12)C(=O)c1ccco1 [Example 18, 2-[Boc-L-Trp]Furan]

>  <REPORTED VALUE>
4.85

$$$$
>  <COMPOUND>
CC(C)(C)OC(=O)N[C@@H](Cc1ccccc1)C(=O)c1nccs1 [Example 26, 2-[Boc-L-Phe]Thiazole]

>  <REPORTED VALUE>
4.11

$$$$
>  <COMPOUND>
O=C(c1nc2ccccc2s1)[C@@H]1CCCN1C(=O)OCc1ccccc1 [Example 1, 2-[Cbz-L-Pro]Benzothiazole]

>  <REPORTED VALUE>
5.15

$$$$
